# Test system: SK-MEL-2 melanoma
# Procedure text: NCI-60 one-dose screen, 48 h (100 = growth as untreated, 0 = no growth, -100 = all killed)
# Condition parameters: 10 µM unless noted
About 83,000 compounds went through this panel and 20% of them were active in at least one assay; those are over-represented in the sample as a whole. The source made the active and inactive calls. Rule for the calls: active = growth percent below 10; inactive = the rest.

Compound: COc1ccccc1NC(=O)C1CC(c2ccc(F)cc2)=NO1 (stereo not given)
growth: 103% (inactive)
//
Compound: O=C(c1ccccc1)N1N=C(c2ccc(-n3ccc(C(F)(F)F)n3)c(F)c2)CC1c1ccc[nH]1 (stereo not given)
growth: 102% (inactive)
//
Compound: CCCCCCNC(=O)Oc1ccc(/C(=C(\C)c2ccccc2)c2ccc(OCCN3CCCCC3)cc2)cc1
growth: 75.3% (inactive)
//
Compound: CCCCC/C=C/C(C)=C/C1CC(C)C/C=C/CCC(O)C(OC(N)=O)CCC(C)CC(O)C(C)C(=O)O1 (stereo not given)
growth: 92.6% (inactive)
//
Compound: CC(=O)O[C@H]1Cc2c([nH]c3ccccc23)[C@@H](c2ccc(Cl)cc2)N1C(=O)CCNC(C)(C)C
growth: 79.4% (inactive)

The origin of these recorded values is PubChem BioAssay (NCI).
